Each recorded value in this set is attributed to ChEMBL document CHEMBL1201862.

- Test system: NCI/ADR-RES
- METHOD: NCI tumour cell line growth inhibition, 48 h
The source made the active and inactive calls. Cut-off read from the data, not from the text of the source: active = GI50 up to about 1.1 µM and inactive = higher.
The reply should name one outcome from Y for active, N for inactive

# count of solved cases: 6
COc1cccc(NC(=O)C(C#N)=C(SC)SC)c1    N
COc1ccc(C2C=C(c3ccc4c(c3)OCO4)Oc3c2c(=O)oc2ccccc32)cc1OC (stereo not given)    Y
CC(C)/C(Cl)=N/OC(NC(=O)Nc1ccc(Cl)c(Cl)c1)(C(F)(F)F)C(F)(F)F    N
CO/C(N)=C(C#N)/N=C/c1ccc2ccccc2c1    N
CCOc1ccc2nc3nc(O)nc(C)c3c(NCCCN(CC)CC)c2c1    N
c1ccc2c(c1)-c1ccccc1C2NC1=NCCO1    N

Enquiry: Please let me know the test result on file for "N#Cc1cc(C#N)c(Cl)nc1N" .
Return: N

Enquiry: Assay result, entry "CC1(C)CCC(C)(C)c2cc(C(=O)Nc3ccc(C(=O)O)cc3)ccc21" — outcome?
Return: N

Enquiry: Check the results log: what was the call for "Cn1c(=O)c2c(n(C)c1=O)n1c(=O)c3ccccc3nc1n2C" ?
Return: N

Enquiry: Record lookup: outcome of this test for "COc1cc2c(cc1O)Cc1c-2[n+](C)cc2cc(OC)c(OC)cc12" ?
Return: N
